Experiment: photoluminescence quantum yield (fraction); solvent given as SMILES
Details: in CC#N
measure: photoluminescence quantum yield
Give bare numbers.

Some solved entries appear below for comparison.
CN(C)c1ccc(/C=C/c2ccccc2)cc1 0.04
N#Cc1ccc(N)c2nonc12 0.105
COc1ccc(-n2nc(C#N)c(N3CCOCC3)n2)cc1 0.856
Cc1cc(=O)oc2c1cc(Br)c1occ(C)c12 0.002
COc1ccc(-c2cc3c(o2)=CC2=C(C(F)(F)F)c4cc5oc(-c6ccc(OC)cc6)cc5n4[B-](F)(F)[N+]=32)cc1 0.45
CC(=O)Nc1ccc2c3cccc4cccc(c5cccc1c52)c43 0.45
CCOC(=O)/C(C#N)=C\c1ccc2c(c1)c1ccccc1n2-c1ccc(OC)cc1 0.04
COc1nc(Cl)nc(Nc2ccc3c4cccc5cccc(c6cccc2c63)c54)n1 0.32
Cc1cccc(C2=CC3=C(c4c(C)cc(C)cc4C)c4cc(-c5cccc(C)c5)c(-c5cccc(C)c5)n4[B-](F)(F)[N+]3=C2c2cccc(C)c2)c1 0.24
N#Cc1ccc2c(c1)CCc1nc(-c3ccc([N+](=O)[O-])cc3)c3c(c1-2)CCc1cc(C#N)ccc1-3 0.039

Please look at the items below and tell me photoluminescence quantum yield for each one, in order.
1. COC(=O)c1ccc(C2=C3C=CC(C)=[N+]3[B-](F)(F)n3c(C)ccc32)cc1
2. COC(=O)c1ccccc1-c1c2ccc(=[NH2+])cc-2oc2cc(N)ccc12
3. Cc1cc(C)c2c(c1)nc1c(=O)n(C)c(=O)nc-1n2C

1. 0.039
2. 1
3. 0.18

Below are 4 compounds. Give each one its photoluminescence quantum yield.
1. Cc1ccc(/C=C/c2ccccc2-[n+]2cc([O-])on2)cc1
2. COc1c2ccccc2c(OC)c2c1c1ccc(F)cc1n2C
3. Cc1ccc(-[c+]2c3ccccc3oc3ccccc32)cc1
4. CN(C)c1ccc(C2=Nc3sc4c(F)c(F)c(F)c(F)c4[n+]3[B-](F)(F)O2)cc1

1: 0.017; 2: 0.27; 3: 0.014; 4: 0.02

For each of the compounds below, state photoluminescence quantum yield.
1. CCc1c(C)c2n(c1C)[B-](F)(F)[N+]1=C(NCc3ccc(OC)cc3)C=CC1=C2C
2. CN(C)c1ccc(C2=Nc3sc4cc(C(F)(F)F)ccc4[n+]3[B-](F)(F)O2)cc1

1. 0.65
2. 0.05

Respectfully, I request photoluminescence quantum yield for each entry included below.
1. O=C(O)c1cc2c(ccc3ccccc32)oc1=O
2. CC1(C)CCc2c(c3ccccc3c3nc4c(nc23)c2c(c3ccccc34)OC(C)(C)CC2)O1

1. 0.54
2. 0.28

====

Assay: photoluminescence quantum yield (fraction); solvent given as SMILES
Details: in CS(C)=O
# binarize photoluminescence quantum yield: threshold 0.4 inclusive, high side true, low side false

Answered cases to consult:
COCCOCCOCCOc1ccc(/C=C/C2=[N+]3C(=C(c4cc(OC)cc(OC)c4)c4c(C)c(I)c(/C=C/c5ccc(OCCOCCOCCOC)cc5)n4[B-]3(F)F)C(C)=C2I)cc1 false
CN(C)c1ccc2nc(/C=C/c3ccccc3)c(=O)oc2c1 true
CCCN1/C(=C/C=C(/C=C/C2=[N+](CCC)c3ccccc3C2(C)C)c2ccncc2)C(C)(C)c2ccccc21 false
CC1=N/C(=C\c2ccc(N(C)C)cc2)C(=O)N1C false
Cn1c2ccc(S(=O)(=O)O)cc2c(=O)c2cc(S(=O)(=O)O)ccc21 true

For this compound, is measured photoluminescence quantum yield 0.4 or higher? COc1cc(OC)cc(C2=C3C(C)=C(I)C(C)=[N+]3[B-](F)(F)n3c(/C=C/c4c[nH]c5ccc([N+](=O)[O-])cc45)c(I)c(C)c32)c1
false

Hi, just wondering whether COc1ccc2oc(-c3cc4cc(OC)ccc4oc3=O)cc2c1 shows photoluminescence quantum yield of 0.4 or higher.
false

====

Provide the reported photoluminescence quantum yield of each item.
Assay: photoluminescence quantum yield (fraction); solvent given as SMILES
Conditions: in ClCCl
Give bare numbers.

COc1ccc(C#Cc2c3ccccc3c(C#Cc3ccc(OC)cc3)c3cc4sc(C)cc4cc23)cc1 0.75
COc1cc(OC)cc(C2=[O+][B-](F)(F)OC(c3cccs3)=C2)c1 0.04
Cc1ccc(-c2ccc(C(=O)NC(C)(C)C)c3c2ccc2c4ccccc4c4ccccc4c23)cc1 0.07
Cc1ccc(/C=C/c2nc(-c3cccc([N+](=O)[O-])c3)[nH]c2/C=C/c2ccc(C)cc2)cc1 0

Give photoluminescence quantum yield for all molecules that follow.
1. C(=C\c1ncnc2ccccc12)/c1ccc(N2CCCCC2)cc1
2. C1=[N+](c2ccccc2)[B-]2(Oc3c1ccc1c4c(ccc31)C=[N+](c1ccccc1)[B-]1(O4)c3ccccc3Oc3ccccc31)c1ccccc1Oc1ccccc12

[0.12, 0.81]

Each molecule below has a reported value. Please supply its photoluminescence quantum yield.
1. CCN(CC)c1ccc2c(c1)oc(=O)c1cnc3c(cnn3-c3ccccc3)c12
2. Cc1cc(C)c(C2=[N+]3C(=Cc4c(C)cc(C)n4[B-]3(F)F)c3ccccc32)[nH]1
3. CN(C)c1ccc(C2=CC3=C(c4ccc([N+](=O)[O-])cc4)[C@H]4c5ccccc5[C@]3(S2)c2ccccc24)cc1

0.916
0.61
0.003

====

Experiment: photoluminescence quantum yield (fraction); solvent given as SMILES
Settings: in CO
# photoluminescence quantum yield binned as lowest = under 0.1, middle = from 0.1 up to 0.5, highest = 0.5 and over

Look over these answered cases.
C#CCOc1ccc(/C=C/C2=[N+]3C(=C(c4ccc(N(CC)CC)cc4)c4c(C)cc(C)n4[B-]3(F)F)C(C)=C2)cc1 highest
Oc1ccccc1-c1nc(-c2ccccc2)c(-c2ccccc2)[nH]1 middle
CC1(C)[C@@H]2CC[C@]1(C)c1nc3cc(-c4cccs4)ccc3nc12 highest
CCc1c(C)c2n(c1C)[B-](F)(F)[N+]1=C(NCc3ccc(OC)cc3)C=CC1=C2C highest

Form field 'band' for Cc1cc(C(F)(F)F)nc2c1ccc1nc(-c3ccc(Cl)cc3)cn12
highest

For this compound, which bin applies? N#Cc1c(-n2nnc3ccccc32)n([C@H]2C[C@H](O)[C@@H](CO)O2)c2ncnc(N)c12
lowest

// bin(item) where item = O=S(=O)([O-])c1ccc(O)c2ccccc12
middle

Looking at Cc1cc(C)c(C2=[N+]3C(=Cc4c(C)cc(C)n4[B-]3(F)F)c3ccccc32)[nH]1 , which class would you pick?
lowest

====

Assay: photoluminescence quantum yield (fraction); solvent given as SMILES
Settings: in Cc1ccccc1
Lab note: anything with photoluminescence quantum yield at or over 0.1 counts as Condition met; the rest go in Condition not met.

CCCCOc1ccc(-c2oc3cc4n(c3c2-c2ccc(OCCCC)cc2)[B-](F)(F)[N+]2=Cc3cc5oc(-c6ccc(OCCCC)cc6)c(-c6ccc(OCCCC)cc6)c5n3[B-](F)(F)[N+]2=C4)cc1 Condition met
CN(C)c1ccc(C2=Nc3sc4ccccc4[n+]3[B-](F)(F)O2)cc1 Condition met
CCC1=C(C)C2=C(c3c4ccccc4c(-c4ccccc4)c4ccccc34)c3c(C)c(CC)c(C)n3[B-](F)(F)[N+]2=C1C Condition met
CCOc1cc2c(cc1/C=C/C1=CC(=C(C#N)C#N)CC(C)(C)C1)c1ccccc1n2CC Condition not met
CCOC(=O)COc1ccc(/C=C/C2=C3c4ccccc4C(c4[nH]c(C)cc4C)=[N+]3[B-](F)(F)n3c(C)cc(C)c32)cc1 Condition not met
c1cc2ccc3ccc4cc3c2cc1c1ccc2c(c1)c1cc(ccc1[C@]13OCCO[C@]21OCCO3)c1ccc2c(c1)c1cc4ccc1[C@]13OCCO[C@]21OCCO3 Condition met

hey, is photoluminescence quantum yield for this one >= 0.1? CC1(C)[C@@H]2CC[C@]1(C)c1nc3cc(-c4cccs4)ccc3nc12
Condition not met

Please tell me: is the molecule CCCCCCOc1ccc(C#Cc2ccc(-c3ccc(-c4ccc(C#Cc5ccc(OCCCCCC)c(OCCCCCC)c5)s4)c4nsnc34)s2)cc1OCCCCCC at or over 0.1 in terms of photoluminescence quantum yield?
Condition met

API: above_or_equal(metric=photoluminescence quantum yield, cutoff=0.1) for item CC1(C)c2cccc(-c3nc(-c4ccccc4)nc(-c4ccccc4)n3)c2Oc2c(N3c4ccccc4Sc4ccccc43)cccc21
Condition not met

====

Assay: photoluminescence quantum yield (fraction); solvent given as SMILES
Conditions: in CC1CCCCC1
Threshold check on photoluminescence quantum yield: strictly below 0.2 is criterion met; on or above 0.2 is criterion not met.

molecule	assignedClass
COC(=O)C([NH3+])Cc1ccc2oc(-c3ccncc3)nc2c1 (stereo not drawn)	criterion met
CC(C)(C)c1cc2c3cc(C(C)(C)C)c(-c4cc5cc6c7cccc8cccc(c9cc(C(C)(C)C)cc(c5cc4C(C)(C)C)c96)c87)cc3cc3c4cccc5cccc(c(c1)c23)c54	criterion not met
COC(=O)C(Cc1ccc2oc(-c3ccncc3)nc2c1)NC(=O)OC(C)(C)C (stereo not drawn)	criterion met
c12c3c4c5c1c1c6c7c2c2c8c3c3c9c4c4c%10c5c5c1c1c6c6c%11c%12c%13c%14c%15c%16c%17c%14c%14c%18c%13c%11c1c1c5c%10c5c(c%14c%10c%17c%11c%13c%16c%14c%16c%15c%12c%12c%16c(c2c7c%126)c2c8c3c(c%13c%142)c2c9c4c5c%10c%112)c%181	criterion met
COc1ccc(/C=C/C=C/C=C/c2ccc([N+](=O)[O-])cc2)cc1	criterion not met
CCNc1ccc2c(C(F)(F)F)cc(=O)oc2c1	criterion not met
CN(C)c1ccc(C2=Cc3c4ccccc4c4ccccc4[n+]3[B-](F)(F)O2)cc1	criterion not met

Now take the following molecule into account.
Dear reviewer, please state whether C(=C\c1c2ccccc2cc2ccccc12)/c1cnc2ccccc2c1 has photoluminescence quantum yield strictly beneath 0.2.
criterion not met
